The measured values listed here are drawn from PubChem BioAssay.

As shown below, each of these molecules has a reported differential viability (reversal) value.
test: MRP1 drug-resistance reversers in H69AR cells – cell-based, doxorubicin co-treatment, pilot screen (AID 601); settings: H69AR cells + 2 uM doxorubicin, CellTiter-Glo, 72 h; at 10 µM; active compounds read high
Use % as the unit, but write only the number.

Would you please look over these solved cases?
| molecule | differential viability (reversal) (%) |
| --- | --- |
| [N-]=[N+]=CC(=O)OC[C@H](N)C(=O)O | -17.2 |
| Clc1ccc(COC(Cn2ccnc2)c2ccc(Cl)cc2Cl)c(Cl)c1 (configuration not stated) | -27.5 |
| Nc1ccnn1C1CCNCC1 | 5.6 |

Form field differential viability (reversal), entry `c1ccc2c(c1)[nH]c1cnccc12` : 2.26

Form field differential viability (reversal), entry c1ccc(C2NCc3ccccc3-n3cccc32)cc1 (configuration not stated) : 5.83

Form field differential viability (reversal), entry `O=C(COc1ccc2ccccc2c1)N1CCN(C2CCN(Cc3ccccc3)CC2)CC1` : 3.83

Form field differential viability (reversal), entry `CN1CC[C@@]23CCCC[C@@H]2[C@@H]1Cc1ccc(O)cc13` : 7.79

Form field differential viability (reversal), entry `CCCNC(=O)c1c(N)n(Cc2ccc3c(c2)OCO3)c2nc3ccccc3nc12` : 6.99

Form field differential viability (reversal), entry O=C(C1CCCN(c2nnc(-n3cccc3)s2)C1)N1CCC2(CC1)OCCO2 (configuration not stated) : 12.8

Form field differential viability (reversal), entry `CCCCCCOc1ccc(CN2CCN(C)CC2)cc1` : 6.76

Form field differential viability (reversal), entry `CCCCn1c(O)c(C(C)=Nc2cccc(C(=O)O)c2)c(=O)[nH]c1=O` : 4.39

Form field differential viability (reversal), entry CCOC(=O)C(O)(c1ccc(N(CC)C(=O)OC)cc1)C(F)(F)F (configuration not stated) : 20.5

----------
biological target: Pantothenate synthetase (Mycobacterium tuberculosis (strain ATCC 25618 / H37Rv)) (UniProt P9WIL5); experiment: Coupled enzyme confirmation of inhibitors against recombinant Mtb PanC (AID 375); settings: coupled enzyme assay; at 10 µM, active compounds read high;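 also: 0% = full reaction with vehicle and 100% = no enzyme background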
Sequence (P9WIL5 whole entry, looked up): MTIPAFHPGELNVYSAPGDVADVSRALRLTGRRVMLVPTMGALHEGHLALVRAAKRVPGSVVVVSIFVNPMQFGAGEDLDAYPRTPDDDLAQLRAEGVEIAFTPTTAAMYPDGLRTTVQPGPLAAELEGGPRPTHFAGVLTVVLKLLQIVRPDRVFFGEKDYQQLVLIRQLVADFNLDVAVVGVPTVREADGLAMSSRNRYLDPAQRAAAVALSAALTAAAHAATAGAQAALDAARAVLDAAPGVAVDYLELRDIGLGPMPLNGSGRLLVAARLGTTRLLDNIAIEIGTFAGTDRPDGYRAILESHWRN
Label rule, in plain words: inhibition of 1% and up is true (1), under 1% is false (0).

| compound | classAssignment |
| --- | --- |
| O=C(Nc1ccc(N2CCOCC2)cc1)Nc1ccc2nc(-c3ccco3)c(-c3ccco3)nc2c1 | true (1) |

## Input Test whether the compound O=C(NCC(=O)N(Cc1cccs1)C(C(=O)NC1CCCC1)c1ccncc1)c1ccco1 (stereo not given) records inhibition of 1% or higher.
## Output true (1)

## Input Test whether the compound `COc1ccc(OC)c(C(=O)CSc2nc3ncccc3[nH]2)c1` records inhibition of 1% or higher.
## Output false (0)

## Input Test whether the compound COC(=O)C1=C(C)NC(=O)C1(NC(=O)c1cccnc1)C(F)(F)F (stereo not given) records inhibition of 1% or higher.
## Output false (0)

## Input Test whether the compound CCOC(=O)c1cccc(NC2c3ccccc3C(=O)N2Cc2ccco2)c1 (stereo not given) records inhibition of 1% or higher.
## Output true (1)

## Input Test whether the compound `Cc1cc(N2CCN(C3CCCC3)CC2)n2c(nc3ccccc32)c1C#N` records inhibition of 1% or higher.
## Output false (0)

## Input Test whether the compound `CCCCc1c(O)nc(SCC(=O)Nc2ccc3c(c2)CCC3)[nH]c1=O` records inhibition of 1% or higher.
## Output true (1)
